target_or_test_system: Brd4 bromodomain 1 (BRD4(1)) (Homo sapiens, UniProt O60885)
protocol: Inhibition of tetra-acetylated histone H4 binding to Brd4 bromodomain 1, measured by FRET (HTRF)
Design: made in house; host or cells: E. coli BL21(DE3)
run_parameters: 2 h at room temperature
pIC50: −log10 of the molar value.
Property: pIC50; scope: individual compounds

>  <smiles_input>
Cc1nc2c(NC(=O)c3ccccc3)cc(-c3c(C)noc3C)cc2[nH]1

>  <target_or_test_system>
Brd4 bromodomain 1 (BRD4(1)) (Homo sapiens, UniProt O60885)

>  <value>
5.52 to 6.52

$$$$
>  <smiles_input>
Cc1ccc(C(N)=O)cc1-c1cc(-c2c(C)noc2C)cc2[nH]c(N3CCOCC3)nc12

>  <target_or_test_system>
Brd4 bromodomain 1 (BRD4(1)) (Homo sapiens, UniProt O60885)

>  <value>
≥ 6.52

$$$$
>  <smiles_input>
Cc1noc(C)c1-c1cn2ccnc2c(-c2c(C)noc2C)n1

>  <target_or_test_system>
Brd4 bromodomain 1 (BRD4(1)) (Homo sapiens, UniProt O60885)

>  <value>
4.52 to 5.52

$$$$
>  <smiles_input>
Cc1noc(C)c1-c1cc(-c2cncnc2)c2nc[nH]c2c1

>  <target_or_test_system>
Brd4 bromodomain 1 (BRD4(1)) (Homo sapiens, UniProt O60885)

>  <value>
5.52 to 6.52

$$$$
>  <smiles_input>
Cc1nc2c(-c3cc(C(N)=O)ccc3C)cc(-c3c(C)noc3C)cc2[nH]1

>  <target_or_test_system>
Brd4 bromodomain 1 (BRD4(1)) (Homo sapiens, UniProt O60885)

>  <value>
≥ 6.52

$$$$
>  <smiles_input>
Cc1nc2c(Oc3ccccc3)cc(-c3c(C)noc3C)cc2[nH]1

>  <target_or_test_system>
Brd4 bromodomain 1 (BRD4(1)) (Homo sapiens, UniProt O60885)

>  <value>
≥ 6.52

$$$$

Task: Provide only the value of recorded pIC50 for `Cc1nn(C)cc1-c1cc(-c2c(C)noc2C)cc2cn[nH]c12`
Result: ≥ 6.52

Task: Provide only the value of recorded pIC50 for `Cc1noc(C)c1-c1cc(-c2c(C)noc2C)c2nc(NCc3cccnc3)[nH]c2c1`
Result: ≥ 6.52
